Test system: ACHN renal
protocol description: NCI-60 one-dose screen, 48 h
study conditions: 10 µM
The panel holds about 83,000 compounds, 20% with a hit somewhere; the sample as a whole holds those more often. Calls of active or inactive are those of the source. Rule for the calls: active = growth percent below 10; inactive = the rest.
Tick one outcome: active, inactive

Examples from the recorded data:
CCOC(=O)c1sc2ncnc(Nc3ccc4c(cnn4C(=O)Nc4ccccc4)c3)c2c1C | inactive
O=c1c(Br)ccc(Br)cc1Br | active
Cc1ccc2nc(Cl)c(-c3nc4ccccc4o3)cc2c1 | inactive
Oc1ccc(-c2[nH]c3ccccc3c2-c2nc3ccccc3o2)cc1 | inactive
Clc1ccc(/C=C2\CCCC3C2=Nc2ccccc2NC3c2ccc(Cl)cc2)cc1 (stereo unspecified) | inactive

Incoming: Test call, this compound: CCCCN1C(=O)CC(SC2CC(=O)N(CCCC)C2=O)C1=O (stereo unspecified)
Outgoing: inactive

Incoming: Test call, this compound: O=C1C=C(Nc2cccc(Br)c2)c2ccccc2C1=O
Outgoing: inactive

Incoming: Test call, this compound: OC(CCN1CCCC1)(c1ccccc1)C1CCCCC1 (stereo unspecified)
Outgoing: inactive

Incoming: Test call, this compound: O=[N+]([O-])c1cccc(/C=N/NC(=S)NC23CC4CC(CC(C4)C2)C3)c1
Outgoing: inactive

Incoming: Test call, this compound: C[C@]12CC[C@@H]3c4ccc(O)cc4CC[C@H]3[C@@H]1CC[C@@H]2NS(=O)(=O)c1ccc(C(F)(F)F)cc1
Outgoing: inactive

Incoming: Test call, this compound: COc1ccccc1-n1c(-c2csc(NC(C)=O)n2)n[nH]c1=S
Outgoing: inactive

Source: PubChem BioAssay (NCI)
